Test system: Non-Small Lung Cancer Cells (NSLCs)
Assay: Cancer migration (wound healing) assay
Assay type: cell-based
Details: 96 h, read-out: IC50 from dose response curve, cell migration
Protocol: The ability of 1,2,3-triazole derivatives according to the disclosure to inhibit cancer cell migration and proliferation in vitro can be measured, e.g., by a wound healing assay (Rodriguez et al., in Cell Migration: Developmental Methods and Protocols, Web et al., Guan ed. Humana Press 294, 23-29). […] Non-Small Lung Cancer Cells (NSLCs) migration rate was assessed in an in vitro wound healing assay. […]
MEASURED ENDPOINT: IC50 (µM)
Field: numeric (µM). Do not append units.

Req: Consider the molecule shown here: CCCCCC(=O)O [CA, Caproic Acid, reference compound] What is its recorded IC50?
Resp: 1340

----------
Tested on: Non-Small Lung Cancer Cells (NSLCs)
Assay: Trypan Blue Exclusion Test of cancer cell viability
Type: cell-based
Settings: defined in text as concentration of derivative causing greater than 90% of the cells to die; read-out: Anti-Cancer Activity (Trypan Blue Exclusion Assay) IC50
Source text: The ability of 1,2,3-triazole derivatives according to the disclosure to kill cancer cells can be measured, e.g., by Trypan Blue Exclusion Assay which measured cell death by starvation due to the presence of the derivative (see EXAMPLE 4). The results obtained using this assay with some representative 1,2,3-triazole derivatives according to the disclosure are shown below in Table 4. […]
MEASURED ENDPOINT: pIC50
Scale: pIC50 equals -log10([C]), with [C] in mol/L.

NCCn1cc(C(=O)NN)nn1: 3.09
NCCn1cc(C/C(N)=N\O)nn1: 3.85
N/C(Cc1cn(C2CCC(N)CC2)nn1)=N/O (stereo not drawn): 3.32
NCCCn1cc(/C(N)=N/O)nn1: 3.12
NCCCn1cc(-c2n[nH]c(=O)o2)nn1: 3.26
NCCCn1cc(C/C(N)=N\O)nn1: 3.17
NCCn1ccnn1: 4.00
NNC(=O)c1cn(C2CCC(N)CC2)nn1 (stereo not drawn): 3.37
NCCCn1ccnn1: 3.35
N/C(Cc1cn(C2CCNCC2)nn1)=N/O: 3.43

Req: Consider the molecule shown here: NNC(=O)c1cn(C2CCNCC2)nn1 What is its recorded pIC50?
Resp: 3.39

Req: Input NC1CCC(n2ccnn2)CC1 (stereo not drawn)
Resp: 3.51

----------
System: Non-Small Lung Cancer Cells (NSLCs)
Test: Trypan Blue Exclusion Test of cancer cell viability
Type: cell-based
Conditions: defined in text as concentration of derivative causing greater than 90% of the cells to die; read-out: Anti-Cancer Activity (Trypan Blue Exclusion Assay) IC50
Form field: pIC50 (one value per entry).
Scale: pIC50 equals -log10([C]), with [C] in mol/L.

Here is how some compounds turned out for pIC50.
NC1CCC(n2cc(-c3noc(=O)[nH]3)nn2)CC1 (stereo not shown) [Derivative 19]: 3.06
NCCn1cc(-c2noc(=O)[nH]2)nn1 [Derivative 20]: 3.68
NC1CCC(n2cc(C(=O)O)nn2)CC1 (stereo not shown) [Derivative 29]: 3.66

Kindly consider the entry below.
Req: Consider the compound shown here: NC(NO)c1cn(C2CCNCC2)nn1 (stereo not shown) [Derivative 7] What is its recorded pIC50?
Resp: 3.38

----------
Form field: IC50 (one value per entry).
Tested on: Non-Small Lung Cancer Cells (NSLCs)
Assay: Trypan Blue Exclusion Test of cancer cell viability
Format: cell-based
Settings: defined in text as concentration of derivative causing greater than 90% of the cells to die; read-out: Anti-Cancer Activity (Trypan Blue Exclusion Assay) IC50
Field: numeric (µM). Do not append units.

Here is how some compounds turned out for IC50.
O=c1[nH]nc(-c2cn(C3CCNCC3)nn2)o1 [compound 12]: 110
N=C(N)c1cn(CCCN)nn1 [Derivative 34]: 350
NC1CCC(n2cc(-c3nnc(C(=O)O)o3)nn2)CC1 (stereo not drawn) [Derivative 23]: 210
NCCn1cc(C(=O)O)nn1 [Derivative 30]: 710
NCCCn1cc(-c2noc(=O)[nH]2)nn1 [Derivative 6]: 800

Req: Any idea what IC50 came out for O=C(O)c1nnc(-c2cn(C3CCNCC3)nn2)o1 [Derivative 21] on Non-Small Lung Cancer Cells (NSLCs)?
Resp: 150

Req: Input N=C(N)c1cn(C2CCNCC2)nn1 [Derivative 33]
Resp: 184

Req: Input NCCn1cc(-c2nnc(C(=O)O)o2)nn1 [Derivative 24]
Resp: 810

Req: Input NCCCn1cc(C(=O)NN)nn1 [Derivative 4]
Resp: 2100

Req: Input N=C(N)c1cn(CCN)nn1 [Derivative 36]
Resp: 415
